target: endothelial lipase (Homo sapiens, UniProt Q9Y5X9); experiment: Endothelial lipase inhibiting activity of boronic acids; format: biochemical; conditions: aromatic boronic acids; 50 micromolar solution of each compound
Sequence (Q9Y5X9 21-500, species assumed): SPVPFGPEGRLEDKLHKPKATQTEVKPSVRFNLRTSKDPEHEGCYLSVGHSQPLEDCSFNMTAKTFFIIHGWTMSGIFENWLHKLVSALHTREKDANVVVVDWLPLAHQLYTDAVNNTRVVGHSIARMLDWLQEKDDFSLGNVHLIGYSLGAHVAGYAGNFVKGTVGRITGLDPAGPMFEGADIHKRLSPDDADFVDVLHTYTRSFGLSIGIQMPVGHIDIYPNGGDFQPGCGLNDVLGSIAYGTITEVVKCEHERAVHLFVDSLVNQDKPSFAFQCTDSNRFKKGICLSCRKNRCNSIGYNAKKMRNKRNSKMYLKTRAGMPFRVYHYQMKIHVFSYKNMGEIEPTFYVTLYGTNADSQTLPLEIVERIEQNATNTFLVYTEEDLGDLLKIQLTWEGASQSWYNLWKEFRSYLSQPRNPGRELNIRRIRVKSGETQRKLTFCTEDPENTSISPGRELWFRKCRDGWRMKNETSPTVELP
ASSAY_READOUT: inhibition at 50 µM (%)

// known answers, use as guide
CC(=O)c1ccc(B(O)O)cc1; 80
OB(O)Cc1ccccc1; 10
Cc1ccc(B(O)O)cc1; 88
O=Cc1ccc(B(O)O)cc1; 60

[1] CCc1ccc(B(O)O)cc1
[2] OB(O)C1CCCCC1
[3] OB(O)C1CCCC1
Enquiry: Please order the records by their reported inhibition at 50 µM, lowest number first. Order the labels as requested and give them as your answer.
Return: 2, 3, 1
